// data source = patent US10344054B2

- TGT: UniProt P30556
- Sequence (P30556 whole entry): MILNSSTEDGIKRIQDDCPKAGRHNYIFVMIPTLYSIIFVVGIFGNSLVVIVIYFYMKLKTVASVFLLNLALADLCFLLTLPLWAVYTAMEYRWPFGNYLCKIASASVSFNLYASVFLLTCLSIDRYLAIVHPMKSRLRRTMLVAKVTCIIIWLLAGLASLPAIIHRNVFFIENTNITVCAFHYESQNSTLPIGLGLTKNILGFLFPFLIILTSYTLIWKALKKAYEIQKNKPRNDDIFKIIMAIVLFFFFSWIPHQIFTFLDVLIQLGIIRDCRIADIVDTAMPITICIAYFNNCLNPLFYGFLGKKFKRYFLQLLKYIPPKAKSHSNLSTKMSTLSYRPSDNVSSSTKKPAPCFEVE
- PROTOCOL DESCRIPTION: FLIPR calcium flux assay, Part II: antagonist activity against Angiotensin II
- Assay type: cell-based
- ASSAY CONDITIONS: read-out: hAT1R Antagonist IC50 Ave
- Description: AT1 receptor (AT1R) agonists increase intracellular flux of calcium ions. AT1R antagonists can reduce the agonist effect. […] Intracellular flux of calcium in response to agonist was measured through real-time measurement of fluorescence induced through the interaction of Ca2+ (released from intracellular stores) and calcium-sensitive dye. In Part I, cells were exposed to varying concentrations of test compounds and immediately measured for agonist activity (EC50 and Efficacy). […]
Residues, ends and D or L forms follow the SMILES beside them.
READOUT TYPE: IC50 (nM)
Your answer is read as nM, so omit the unit and give the number.

CNCC(=O)N[C@@H](CCCNC(=N)N)C(=O)N[C@H](C(=O)N[C@@H](Cc1cccc(O)c1)C(=O)N[C@H](C(=O)N[C@@H](Cc1c[nH]cn1)C(=O)N1CCC[C@H]1C(=O)N[C@H](Cc1ccccc1Cl)C(=O)O)C(C)C)C(C)C [Compound 30] (HELM PEPTIDE1{[Sar].R.V.[O=C([C@H](Cc1cccc(O)c1)N[*:1])[*:2]].V.H.P.[O=C(O)[C@@H](Cc1ccccc1Cl)N[*:1]]}$$$$V2.0) | 20.5

Consider CC[C@H](C)[C@H](NC(=O)[C@H](Cc1ccc(O)cc1)NC(=O)[C@@H](NC(=O)[C@H](CCCNC(=N)N)NC(=O)CNC)C(C)C)C(=O)N[C@@H](Cc1c[nH]cn1)C(=O)N1CCC[C@H]1C(=O)N[C@H](Cc1ccccc1Cl)C(=O)O [Compound 25] . Its measured IC50 is 11.6

Short answer for CNCC(=O)N[C@@H](CCCNC(=N)N)C(=O)N[C@H](C(=O)N[C@@H](Cc1ccc(O)cc1)C(=O)N[C@@H](Cc1ccccc1)C(=O)N[C@@H](Cc1c[nH]cn1)C(=O)N1CCC[C@H]1C(=O)N[C@H](Cc1cccc2ccccc12)C(=O)O)C(C)C [Compound 16, Sar-Arg-Val-Tyr-Phe-His-Pro-(D-1Nal)-OH] (HELM PEPTIDE1{[Sar].R.V.Y.F.H.P.[O=C(O)[C@@H](Cc1cccc2ccccc12)N[*:1]]}$$$$V2.0) : IC50 was 5
